The measured values listed here are drawn from paper PMC8577376.

Target: human CatL (Homo sapiens, UniProt P07711)
Sequence (P07711 114-333): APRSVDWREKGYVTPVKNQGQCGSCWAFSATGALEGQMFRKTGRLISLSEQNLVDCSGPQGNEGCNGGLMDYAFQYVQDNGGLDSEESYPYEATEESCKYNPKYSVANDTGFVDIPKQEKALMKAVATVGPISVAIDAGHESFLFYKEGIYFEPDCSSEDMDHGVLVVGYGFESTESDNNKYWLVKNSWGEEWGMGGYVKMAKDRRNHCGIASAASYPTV
Experiment: Single-concentration protease screen against human CatL
Assay type: biochemical
Conditions: 13 nM
RESULT_TYPE: follow-up screen against CatL

COC1=CC(=O)N(C(=O)/C=C/[C@H](C)NC(=O)[C@H](CCc2ccccc2)NC(=O)[C@H](CC2CCCCC2)NC(=O)[C@H](C(C)C)N(C)C)[C@H]1Cc1c[nH]c2ccccc12: most potent inhibitors
COC1=CC(=O)N(C(=O)/C=C/[C@H](C)NC(=O)[C@H](CC(C)C)NC(=O)[C@H](CC(C)C)NC(=O)C2CCN(C)CC2)[C@H]1Cc1c[nH]c2ccccc12: most potent inhibitors
COC1=CC(=O)N(C(=O)/C=C/[C@H](C)NC(=O)[C@H](CC(C)C)NC(=O)[C@H](CC2CCCCC2)NC(=O)C2CCN(C)CC2)[C@H]1Cc1c[nH]c2ccccc12: most potent inhibitors

###

Target: human CatL (Homo sapiens, UniProt P07711)
Assay: Single-concentration protease screen against human CatL
Format: biochemical
Details: 13 nM
RESULT_TYPE: follow-up screen against CatL

CC[C@H](C)[C@@H](C(=O)O[C@@H](CC(C)C)C(=O)N[C@@H](CC(C)C)C(=O)N[C@@H](C)/C=C/C(=O)N1C(=O)C=C(OC)[C@@H]1CC(C)C)N(C)C [compound 3]: most potent inhibitors
CC[C@H](C)[C@@H](C(=O)O[C@@H](CC(C)C)C(=O)N[C@@H](CC(C)C)C(=O)N[C@@H](C)/C=C/C(=O)N1C(=O)C=C(OC)[C@@H]1C)N(C)C [compound 1, gallinamide A]: most potent inhibitors
COC1=CC(=O)N(C(=O)/C=C/[C@H](CCc2ccccc2)NC(=O)[C@H](CC(C)C)NC(=O)[C@H](CC(C)C)NC(=O)[C@H](C(C)C)N(C)C)[C@H]1Cc1c[nH]c2ccccc12 [compound 23]: most potent inhibitors

###

Catalogue of kinact/KI values
Target: Human CatB (Homo sapiens)
Experiment: kinact/KI^app determination, recombinant human CatB
Format: biochemical
Conditions: read-out: kinact/KI^app
RESULT_TYPE: kinact/KI (M⁻¹ s⁻¹)

CC[C@H](C)[C@@H](C(=O)O[C@@H](CC(C)C)C(=O)N[C@@H](CC(C)C)C(=O)N[C@@H](C)/C=C/C(=O)N1C(=O)C=C(OC)[C@@H]1C)N(C)C [compound 1, gallinamide A]: 5350
COC1=CC(=O)N(C(=O)/C=C/[C@H](C)NC(=O)[C@H](CC(C)C)NC(=O)[C@H](CC2CCCCC2)NC(=O)C2CCN(C)CC2)[C@H]1Cc1c[nH]c2ccccc12: 24300
COC1=CC(=O)N(C(=O)/C=C/[C@H](CCc2ccccc2)NC(=O)[C@H](CC(C)C)NC(=O)[C@H](CC(C)C)NC(=O)[C@H](C(C)C)N(C)C)[C@H]1Cc1c[nH]c2ccccc12: 7940
COC1=CC(=O)N(C(=O)/C=C/[C@H](C)NC(=O)[C@H](CC(C)C)NC(=O)[C@H](CC(C)C)NC(=O)C2CCN(C)CC2)[C@H]1Cc1c[nH]c2ccccc12: 19900
COC1=CC(=O)N(C(=O)/C=C/[C@H](C)NC(=O)[C@H](CCc2ccccc2)NC(=O)[C@H](CC2CCCCC2)NC(=O)[C@H](C(C)C)N(C)C)[C@H]1Cc1c[nH]c2ccccc12: 9650
